test: Octanol/PBS buffer distribution coefficient, logD of the compound at pH 7.5 by LC-MS analysis; assay type: physicochemical
logD overview
Number only, please.

[
  {
    "Mol": "CSc1ncccc1C(=O)Nc1nc(-c2ccc3ccccc3c2)cs1",
    "Number": 4.8
  }
]

State, in one line, measured logD of CSc1ncccc1C(=O)Nc1nc(-c2cccc(Nc3ccc(CN)cc3)c2)cs1
2.2

* * *

log10(half-life) overview
assay: Half life of the compound in mouse liver microsomes in presence of NADPH by LC-MS/MS analysis; type: ADME, Microsome
Hey, these are logged values: log10 of half-life, min being the unit before logging.

Here are 10 molecules together with their reported answers.
[
  {
    "Mol": "CSc1ncccc1C(=O)Nc1nc(-c2cc(F)cc(-c3ccc(C#N)cc3)c2)cs1",
    "log10(half-life)": 2.09
  },
  {
    "Mol": "CSc1ncccc1C(=O)Nc1nc(-c2cccc(Nc3ccc(C#N)cn3)c2)cs1",
    "log10(half-life)": 1.23
  },
  {
    "Mol": "CSc1ncccc1C(=O)Nc1nc(-c2cccc(-c3ccc(C#N)cc3)c2)cs1",
    "log10(half-life)": 1.76
  },
  {
    "Mol": "CSc1ncccc1C(=O)Nc1nc(-c2cccc(N3CCNCC3)c2)cs1",
    "log10(half-life)": 2.32
  },
  {
    "Mol": "CSc1ncccc1C(=O)Nc1nc(-c2cccc(-c3ccccc3)c2)cs1",
    "log10(half-life)": 1.71
  },
  {
    "Mol": "CSc1ncccc1C(=O)Nc1nc(-c2ccc3ncccc3c2)cs1",
    "log10(half-life)": 1.11
  },
  {
    "Mol": "CSc1ncccc1C(=O)Nc1nc(-c2cccc(Nc3ccc(CN)cc3)c2)cs1",
    "log10(half-life)": 2.37
  },
  {
    "Mol": "CSc1ncccc1C(=O)Nc1nc(-c2cccc(Nc3ccc(C#N)c(C(=O)O)c3)c2)cs1",
    "log10(half-life)": 1.86
  },
  {
    "Mol": "CSc1ncccc1C(=O)Nc1nc(-c2cccc(Nc3ccc(C#N)c(O)c3)c2)cs1",
    "log10(half-life)": 1.54
  },
  {
    "Mol": "CC(C)(C#N)c1ccc(C(=O)Nc2nc(-c3ccc4ccccc4c3)cs2)cc1",
    "log10(half-life)": 2.11
  }
]

State, in one line, measured log10(half-life) of CSc1ncccc1C(=O)Nc1nc(-c2cccc(-c3ccc(C#N)c(O)c3)c2)cs1
1.69

State, in one line, measured log10(half-life) of CSc1ncccc1C(=O)Nc1nc(-c2cccc(-c3cccc(C#N)c3)c2)cs1
1.49

* * *

assay: Cmax in C57BL/6 mouse at 40 mg/kg, po; assay type: ADME, organism-based; details: in vivo
Value kind: Cmax (ng/mL)
Lab book: enter the figure in ng/mL, no units written.

State, in one line, measured Cmax of CSc1ncccc1C(=O)Nc1nc(-c2cccc(Nc3ccc(C#N)cc3)c2)cs1
2100

* * *

assay: Cmax in C57BL/6 mouse at 40 mg/kg, sc; format: ADME, organism-based; details: in vivo
Value kind: Cmax (ng/mL)
Lab book: enter the figure in ng/mL, no units written.

State, in one line, measured Cmax of CSc1ncccc1C(=O)Nc1nc(-c2cccc(Nc3ccc(C#N)cc3)c2)cs1
142
